Measured values drawn from paper PMC8634379 for this set.

# Measurement protocol: Pharmacokinetic study after IP administration
# Type: in vivo, male C57BL/6 mice
# Experimental setup: male, C57BL/6, mouse, in vivo, 3 mg/kg, 3 mg/kg ip, 0.5 h; read-out: Total Concentration in mouse plasma, individual mice
Assay readout: concentration at 0.5 h (ng/mL)
One number for each entry, in ng/mL.

Note to self: concentration at 0.5 h recorded for O=C(NC12CC3CC(Cl)(CC(C1)c1ccccc13)C2)N[C@H]1CC[C@H](Oc2ccc(C(=O)O)cc2)CC1 was 1350

###

# Measurement protocol: Concentrations in plasma and pancreatic tissue in the efficacy study
# Type: in vivo, C57BL/6 male mice
# Experimental setup: male, C57BL/6, mouse, pancreas, intraperitoneal; 0.3 mg/kg IP, 10 h post-administration; read-out: concentration in pancreas
Assay readout: concentration at 10 h (ng/g)
One number for each entry, in ng/g.

Note to self: concentration at 10 h recorded for O=C(NC12CC3CC(Cl)(CC(C1)c1ccccc13)C2)N[C@H]1CC[C@H](Oc2ccc(C(=O)O)cc2)CC1 was 29.9

###

# Measurement protocol: Caco-2 cell permeability
# Assay type: in vitro ADME
# Experimental setup: human, ER = (Papp B→A)/(Papp A→B)
Task for the reader: assign each of the following compounds its reported efflux ratio at 2 h, 10 µM.
Give bare numbers.

Hello, I would appreciate it if you could give efflux ratio at 2 h, 10 µM for each entry below.
1. O=C(NC12CC3CC(F)(CC(C1)c1ccccc13)C2)N[C@H]1CC[C@H](Oc2ccc(C(=O)O)cc2)CC1
2. CC12CC3CC(NC(=O)N[C@H]4CC[C@H](Oc5ccc(C(=O)O)cc5)CC4)(CC(C1)c1ccccc13)C2

244
12.4
